Quantity Kind: melting point

O=C(N[C@@H](CC1CCCC1)C(=O)NC1CCCN(C(=O)c2ccco2)CC1=O)c1ccco1 (stereo partly drawn) [Example 70]    85 to 88 °C

Report melting point for O=C(N[C@@H](CC1CCCC1)C(=O)NC1CCCN(S(=O)(=O)c2ccccn2)CC1=O)c1ccco1 (stereo partly drawn) [Example 63] please. 81 to 84 °C

Report melting point for O=C(N[C@@H](CC1CCCC1)C(=O)NC1CCCN(S(=O)(=O)c2ccccn2)CC1=O)c1ccco1 (stereo partly drawn) [Example 64] please. 77 to 80 °C

Report melting point for CS(=O)(=O)N1CCCC(NC(=O)[C@H](CC2CCCC2)NC(=O)c2ccco2)C(=O)C1 (stereo partly drawn) [Example 65] please. 167 to 170 °C

Report melting point for O=C(N[C@@H](CC1CCCC1)C(=O)NC1CCCN(C(=O)c2ccco2)CC1=O)c1ccco1 (stereo partly drawn) [Example 69] please. 88 to 89 °C

Report melting point for O=C(N[C@@H](CC1CCCC1)C(=O)NC1CCCN(C(=O)c2ccccc2)CC1=O)c1ccco1 (stereo partly drawn) [Example 71] please. 101 to 103 °C

Report melting point for O=C(N[C@@H](CC1CCCC1)C(=O)NC1CCCN(C(=O)c2ccccc2)CC1=O)c1ccco1 (stereo partly drawn) [Example 72] please. 97 to 100 °C

Report melting point for O=C(N[C@@H](CC1CCCC1)C(=O)NC1CCCN(S(=O)(=O)c2ccccc2)CC1=O)c1ccco1 (stereo partly drawn) [Example 67] please. 88 to 90 °C

Report melting point for O=C(N[C@@H](CC1CCCC1)C(=O)NC1CCCN(S(=O)(=O)c2ccccc2)CC1=O)c1ccco1 (stereo partly drawn) [Example 68] please. 166 to 167 °C

Report melting point for CS(=O)(=O)N1CCCC(NC(=O)[C@H](CC2CCCC2)NC(=O)c2ccco2)C(=O)C1 (stereo partly drawn) [Example 66] please. 158 to 161 °C

Report melting point for O=C(N[C@@H](CC1CCCC1)C(=O)NC1CCCN(C(=O)OCc2ccccc2)CC1=O)c1ccco1 (stereo partly drawn) [Example 61] please. 72 to 74 °C

Report melting point for O=C(N[C@@H](CC1CCCC1)C(=O)NC1CCCN(C(=O)OCc2ccccc2)CC1=O)c1ccco1 (stereo partly drawn) [Example 62] please. 66 to 68 °C
